# Measurement target: pooled human IgG
Observation type: Enzyme Activity Endpoint Assay (purified): scIgG (ng/µL)
Form entry: value (ng/µL) — number only.

Please report the recorded Enzyme Activity Endpoint Assay (purified): scIgG for PRT-161 (protein) MANQEIRYSEVTPYHVTIVWTDGVKPPTDFIKGEDVFHAPYKAHQGWYDITKTFNGKDDLLCGAATAGNMLHWWFDQNKDQIKRYLEEHPEKQKINFNGEQMFDVKEAIDTKNHQLDSKLFEYFKEKAFPYLSTKHLGVFPDHVIDMFINGYRLSLTNHGPTPVKEGSKDPRGGIFDAVFTRGDQSKLLTSRHDFKEKNLKEISDLIKKELQEGKALGLSHTYANVRINHVINLWGADFDSNGNLKAIYVTDSDSNASIGMKKYFVGVNSAGKVAISAKEIKEDNIGAQVLGLFTLSTGQDSWNQTN .
0

Would you mind telling me what Enzyme Activity Endpoint Assay (purified): scIgG value was observed for PRT-659 (protein) MQITSVWTKGVTPLTPEQFRYNNEDVIHAPYLAHQGWYDITKAFDGKDNLLCGAATAGNMLHWWFDQNKTEIEAYLSKHPEKQKIIFNNQELFDLREAINTKDDQKDSKLFNYFREKAFPNLSARQLGVMPDLVLDMFINGYYLNVFKTQSTDVNRPYQDKDKRGGIFDAVFTRGDQTTLLTARHDLKNKGLNDISTIIKQELTEGRALALSHTYANVSISHVINLWGADFNAEGNLEAIYVTDSDANASIGMKKYFVGINAHGHVAISAKKIEGENIGAQVLGLFTLSSGKDIWQKLSLEHHHHHH ?
0

Enzyme Activity Endpoint Assay (purified): scIgG lookup needed for PRT-608 (protein) MQITSVWTKGVTPLTPEQFRYNNEDVIHAPYLAHQGWYDITKAFDGKDNLLCGAATAGNMLHWWFDQNKTEIEAYLSKHPEKQKIIFNNQELFDLKAAIDTKDSQTNSQLFNYFRDKAFPNLSARQLGVMPDLVLDMFINGYYLNVFKTQSTDVNRPYQDKDKRGGIFDAVFTRGDQTTLLTARHDLKNKGLNDISTIIKQELTEGRALALSHTYANVSISHVINLWGADFNAEGNLEAIYVTDSDADEKIGMKKYFVGINAHGHVAISAKKIEGENIGAQVLGLFTLSSGKDIWQKLSLEHHHHHH , thanks.
0

Quick one: Enzyme Activity Endpoint Assay (purified): scIgG of PRT-281 (protein) MVTSVWTKGVTPPAKFTQGEDVFHAPYVANQGWYDITKTFNGKDDLLCGAATAGNMLHWWFDQNKEKIEAYLKKHPDKQKIMFGDQELLDVRKVINTKGDQTNSELFNYFRDKAFPNLSARRIGVMPDLVLDMFINGYYLNVYKTQTTDVNRTYQEKDRRGGIFDAVFTRGDQSKLLTSRHDFKEKNLKEISDLIKKELTEGKALGLSHTYANVRIGHVINLWGADFDSNGNLKAIYVTDSDSNASIGMKKYFVGVNSSGKVAISAKEIKEDNIGAQVLGLFTLSTGQDSWNQTN ?
29

Fill in: Enzyme Activity Endpoint Assay (purified): scIgG of PRT-145 (protein) MANQEIRYSEVTPYHITSVWTKGVTPPANFTQGEDVFHAPYVANQGWYDITKTFNGKDDLLCGAATAGNMLHWWFDQNKDQIKRYLEEHPEKQKINFNGEQMFDVKEAIDTKNHQLDSKLFEYFKEKAFPYLSTKHLGVFPDHVIDMFINGYRLSLTNHGPTPVKEGSKDPRGGIFDAVFTRGDQSKLLTSRHDFKEKTLNTISQLIKQELQSGKALGLSHTYANVRINHVINLWGADFDAEGNLEAIYVTDSDSNASIGMKKYFVGKNSAGKVAISAKEIKEDNIGAQVLGLFTLSTGQDSWNQTN is ___
0

Which Enzyme Activity Endpoint Assay (purified): scIgG value belongs to PRT-59 (protein) MANQEIRYSEVTPYHVTSVWTKGVTPPANFTQGEDVFHAPYVANQGWYDITKTFNGKDDLLCGAATAGNMLHWWFDQNKDQIKRYLEEHPEKQKINFNGEQMFDVKEAIDTKNHQLDSKLFEYFKEKAFPYLSTKHLGVFPDHVIDMFINGYRLSLTNHGPTPVKEGSKDPRGGFFDAVFTRGDQSKLLTSRHDFKEKNLKEISDLIKKELTEGKALGLSHTYANVRINHVINLWGADFDSNGNLKAIYVTDSDSNASIGMKKYFVGVNSAGKVAISAKEIKEDNIGAQVLGLFTLSTGQDSWNQTN ?
56

Item PRT-124 (protein) MRNATEAYAKEVPHQITSVWTKGVTPLTPEQFRYNNEDVIHAPYLAHQGWYDITKTFDGKDNLLCGAATAGNMLHWWFDQNKTEIEAYLSKHPEKQKIIFNNQELFDLKAAIDTKDSQTNSQLFNYFRDKAFPNLSARQLGVMPDLVLDMFINGYYLNVFKTQSTDVNRPYQDKDKRGGIFDAVFTRGDQTTLLTARHDLKNKGLNDISTIIKQELTEGKALALSHTYANVSISHVINLWGADFNAEGNLEAIYVTDSDANASIGMKKYFVGVNAHGKVAISAKKIEGENIGAQVLGLFTLSSGKDIWQKLS has what recorded Enzyme Activity Endpoint Assay (purified): scIgG?
0

Entry PRT-236 (protein) MEVVEVWPYGQNPNGKTEILSQTEDSESLQRLRDIEDFQAEKKMQNVVYTKWLDGVDVDDHDFRKIVDGNIAYYATPLLNGRGFYDINKDFNRDSDKCAAAVAANMFHYWLDINRDNVDRFLRQNPEKHGIIELPDGQLKLSDFLNTYESDHGYRDKSKLFDFISNNFNGPVWTDKLLDNYINGYAYNYKYGRTIEDPTKNTSKINFFKEVFNEKILTNNHSIRNQNEFSVLLSEALYTGKAIGLSYGPAGLRHSLGHIISVWGADLDADGNVVAIYVTDSDDKKLTIGDERVGLKRYKISTDDENRLRLTAYEETHNTGGQIRGLWTLDTGKYAWADYFDKTEQTGTDQAEQLEHHHHHH has what Enzyme Activity Endpoint Assay (purified): scIgG?
472
